# target_or_system: CbuqSNMP1b (Cyrtotrachelus buqueti, UniProt A0A9E9JN76)
# Sequence (A0A9E9JN76 entry or part of it): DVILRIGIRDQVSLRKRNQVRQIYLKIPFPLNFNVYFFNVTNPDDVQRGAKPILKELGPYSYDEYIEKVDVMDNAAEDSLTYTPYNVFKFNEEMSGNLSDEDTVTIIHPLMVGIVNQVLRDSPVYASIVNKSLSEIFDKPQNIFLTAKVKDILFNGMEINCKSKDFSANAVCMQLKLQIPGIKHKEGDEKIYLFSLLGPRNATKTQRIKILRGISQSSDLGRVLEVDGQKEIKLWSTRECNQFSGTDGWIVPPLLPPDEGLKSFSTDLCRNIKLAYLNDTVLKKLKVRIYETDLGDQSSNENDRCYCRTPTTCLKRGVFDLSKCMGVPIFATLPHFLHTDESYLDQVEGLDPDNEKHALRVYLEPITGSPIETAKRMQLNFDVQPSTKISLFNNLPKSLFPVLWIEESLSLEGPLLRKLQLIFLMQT
# method_summary: Binding of 1-NPN to CbuqSNMP1b (fluorescence titration, Scatchard analysis)
# conditions: 2 μM CbuqSNMP1b titrated with 2–40 μM 1-NPN; Scatchard plot; read-out: dissociation constant (Kd) of the CbuqSNMP1b/1-NPN complex
pKd: −log10 of the molar value.

compound	pKd
c1ccc(Nc2cccc3ccccc23)cc1 [1-NPN, N-phenyl-1-naphthylamine]	4.88

---

# target_or_system: CbuqSNMP1b (Cyrtotrachelus buqueti)
# method_summary: Fluorescence competition binding assay with 1-NPN as fluorescent probe
# conditions: recombinant CbuqSNMP1b and 1-NPN both at 2 μM; displacement of 1-NPN; room temperature; read-out: IC50
pIC50: −log10 of the molar value.
Recorded pIC50 for the following compounds

compound	pIC50
CCCC/C=C/C=C/C=O [trans,trans-2,4-Nonadienal]	< 4.30
CCCCCCCCCCCCCCCC(=O)OC [Methyl hexadecanoate]	< 4.30
CCCCCCCC(C)=O	< 4.30
CCCCCC(=O)OCC [Ethyl hexanoate]	< 4.30
CCCCCCCCCC=O	< 4.30
CCCCCCCCC=O	< 4.30

---

# target_or_system: CbuqSNMP1b (Cyrtotrachelus buqueti)
# method_summary: Fluorescence competition binding assay with 1-NPN as fluorescent probe
# Experimental: 1-NPN and all of the other chemicals (the purity being at least more than 96%) used in the binding assays were purchased from Aladdin Biochemical Technology Co., Ltd. (Shanghai, China). The Lumina fluorescence spectrophotometer (Thermo Fisher Scientific, Waltham, MA, USA) was used to perform fluorescence binding assays with a 1 cm light path quartz cuvette at room temperature. […] The binding of 1-NPN was measured at an excitation wavelength of 337 nm. […]
readout_label: IC50

compound	result
C=Cc1ccccc1	> 50 µM
CC(C)=CCC/C(C)=C/CC/C(C)=C/CC/C=C(\C)CC/C=C(\C)CCC=C(C)C	> 50 µM
C[C@@H]1CC[C@H]2C(C)(C)[C@H]3C[C@@]12CC[C@@]3(C)O	> 50 µM
Cc1cccc(C)c1	> 50 µM
Oc1ccccc1	24.1 µM
c1ccc2scnc2c1	13.3 µM
CCCCOC(=O)c1ccccc1C(=O)OCCCC [Dibutyl phthalate]	10.4 µM
C=C(C)[C@H]1CC=C(C)CC1 [(+)-Limonene]	> 50 µM
